System: H929 human cancer cell lines
testSummary: Cellular viability / proliferation (Cell TiterGlo, 72 h)
Assay type: cell-based
protocolConditions: Homo sapiens, NCI-H929, 72 h, read-out: GI50 on cellular proliferation of H929 human cancer cell lines, H929 cells, 72 h, Cell TiterGlo, 10% FBS
Experimental: Cellular Viability of Human Tumor Cell Lines To evaluate compound effect on cellular proliferation, cells were plated at 1,000 cells/well in 96-well tissue culture plates in a total volume of 90 μL medium supplemented with 10% FBS (Sigma, Saint Louis, Mo.). […] Luminescence is measured on a BioTek Cytation 3. Luminescence values are imported into a template in XLFit (Guildford, Surrey, UK) that uses a four-parameter fit to generate an IC50 value for each compound dilution series on the plate.
observedProperty: GI50 (nM)

>>> reportedresult("Cc1cc(N2C[C@@H](C)n3c(c(CCCOc4cc(C)c(Cl)c(C)c4)c4ccc(Cl)c(-c5c(C)n[nH]c5C)c43)C2=O)c2c(c1)cc(C(=O)O)n2C [Example 400]")
430
>>> reportedresult("Cc1cc(OCCCc2c3n(c4c(-c5c(C)nn(C)c5C)c(Cl)ccc24)[C@H](C)CN(c2cccc4c2cc(C(=O)O)n4Cc2ccccn2)C3=O)cc(C)c1Cl [Example 352]")
5100
>>> reportedresult("Cc1cc(OCCCc2c3n(c4c(-c5c(C)nn(C)c5C)c(Cl)ccc24)[C@H](C)CN(c2cc(CN4CCN(C)CC4)cc4c(C(=O)O)cn(C)c24)C3=O)cc(C)c1Cl [Example 490]")
810
>>> reportedresult("CC(=O)N1CCN(Cc2nc(C)c(-c3c(Cl)ccc4c(CCCOc5cc(C)c(Cl)c(C)c5)c5n(c34)[C@H](C)CN(c3cn(C)c4ccc(C(=O)O)cc34)C5=O)c(C)n2)CC1 [Example 433]")
440
>>> reportedresult("Cc1cc(OCCCc2c3n(c4c(-c5c(C)nn(C)c5C)c(Cl)ccc24)CCCN(c2cccc4c(C(=O)O)n(C)nc24)C3=O)cc(C)c1Cl [Example 16]")
2900
>>> reportedresult("Cc1cc(OCCCc2c3n(c4c(-c5c(C)nn(C)c5C)c(Cl)ccc24)[C@H](C)CN(c2cn(C)c4c(-c5nnnn5C)cccc24)C3=O)cc(C)c1Cl [Example 372]")
2000
>>> reportedresult("Cc1cc(OCCCc2c3n(c4c(-c5c(C)nn(C)c5C)c(Cl)ccc24)[C@H](C)CN(c2cc(NC(=O)CN(C)C)cc4c(C(=O)O)cn(C)c24)C3=O)cc(C)c1Cl [Example 542]")
3300
>>> reportedresult("Cc1cc(OCCCc2c3n(c4c(-c5c(C)nn(C)c5C)c(Cl)ccc24)[C@H](C)CN(c2cn(C)c4ccc(C(=O)O)cc24)C3=O)ccc1Cl [Example 407]")
490
>>> reportedresult("Cc1cc(OCCCc2c3n(c4c(-c5c(C)nn(C)c5C)c(Cl)ccc24)[C@H](C)CN(c2cn(C)c4ccc(C(N)=O)cc24)C3=O)cc(C)c1Cl [Example 221]")
450
>>> reportedresult("COCCn1c(C(=O)O)cc2c(N3C[C@@H](C)n4c(c(CCCOc5cc(C)c(Cl)c(C)c5)c5ccc(Cl)c(-c6c(C)nn(C)c6C)c54)C3=O)cccc21 [Example 353]")
2900
>>> reportedresult("Cc1cc(OCCCc2c3n(c4c(-c5c(C)nn(C)c5C)c(Cl)ccc24)[C@H](C)CN(c2cc(C(=O)O)c4cnn(C(C)C)c4c2)C3=O)cc(C)c1Cl [Example 131]")
1900

###

Entries annotated with measured log10(Ki)
targetDesc: Mcl-1 (Homo sapiens (Human), UniProt Q07820)
Sequence (Q07820 172-327): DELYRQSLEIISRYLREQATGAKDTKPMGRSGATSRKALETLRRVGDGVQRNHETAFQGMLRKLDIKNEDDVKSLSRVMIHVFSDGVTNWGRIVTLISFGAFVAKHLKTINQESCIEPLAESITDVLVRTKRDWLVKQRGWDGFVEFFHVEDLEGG
testSummary: TR-FRET binding assay, FITC-Bak peptide and MBP-tagged Mcl-1
protocolConditions: read-out: Ki for Inhibition of Mcl-1 by TR-FRET assay
observedProperty: log10(Ki) (log10 of the value in nM)

>>> reportedresult("Cc1cc(OCCCc2c3n(c4c(-c5c(C)nn(C)c5C)c(Cl)ccc24)[C@H](C)CN(c2cc(N(C)C(=O)[C@H](C)N(C)C)cc4c(C(=O)O)cn(C)c24)C3=O)cc(C)c1Cl")
-0.04
>>> reportedresult("Cc1cc(OCCCc2c3n(c4c(-c5c(C)nn(C)c5C)c(Cl)ccc24)[C@H](C)CN(c2cc(NC(=O)CN4CCN(C)CC4)cc4c(C(=O)O)cn(C)c24)C3=O)cc(C)c1Cl")
-0.59
>>> reportedresult("Cc1cc(OCCCc2c3n(c4c(-c5c(C)nn(C)c5C)c(Cl)ccc24)[C@H](C)CN(c2cn(C)c4ccc(-c5cncnc5)cc24)C3=O)cc(C)c1Cl")
1.18
>>> reportedresult("Cc1cc(OCCCc2c3n(c4c(-c5c(C)ncnc5C)c(Cl)ccc24)[C@H](C)CN(c2cn(C)c4ccc(-c5ncccn5)cc24)C3=O)cc(C)c1Cl")
0.48
>>> reportedresult("Cc1cc(OCCCc2c3n(c4c(-c5c(C)nn(C)c5C)c(Cl)ccc24)[C@H](C)CN(c2cc(OCc4ccccc4)cc4cc(C(=O)O)n(Cc5ccccn5)c24)C3=O)cc(C)c1Cl")
0.15
>>> reportedresult("Cc1cc(OCCCc2c3n(c4c(-c5c(C)nc(CN6CCOCC6)nc5C)c(Cl)ccc24)[C@H](C)CN(c2cn(C)c4ccc(-c5ncn(C)n5)cc24)C3=O)cc(C)c1Cl")
0.57
>>> reportedresult("Cc1cc(OCCCc2c3n(c4c(-c5c(C)nn(C)c5C)c(Cl)ccc24)[C@H](C)CN(c2cn(CCN4CCOCC4)c4ccc(-c5ncn(-c6ncccn6)n5)cc24)C3=O)cc(C)c1Cl")
-0.29
>>> reportedresult("COCCn1cc(N2C[C@@H](C)n3c(c(CCCOc4cc(C)c(Cl)c(C)c4)c4ccc(Cl)c(-c5c(C)nn(C)c5C)c43)C2=O)c2cc(-c3ncn(CC4CCOCC4)n3)ccc21")
0.98
>>> reportedresult("COCCn1cc(N2C[C@@H](C)n3c(c(CCCOc4cc(C)c(Cl)c(C)c4)c4ccc(Cl)c(-c5c(C)nn(C)c5C)c43)C2=O)c2cc(-c3ncn(CCN4CCOCC4)n3)ccc21")
0.98
>>> reportedresult("Cc1cc(OCCCc2c3n(c4c(-c5c(C)nn(C)c5C)c(Cl)ccc24)[C@H](C)CN(c2cn(C)c4ccc(-c5nc6cccc(C)n6n5)cc24)C3=O)cc(C)c1Cl")
0.04

###

Entries annotated with measured Ki
targetDesc: Mcl-1 (Homo sapiens (Human))
testSummary: TR-FRET binding assay, FITC-Bak peptide and MBP-tagged Mcl-1
protocolConditions: read-out: Ki for Inhibition of Mcl-1 by TR-FRET assay
Experimental: Compounds are diluted in DMSO in a 16-point, semilog serial dilution scheme. […] The plate was mixed and incubated for 3 hours at room temperature. […] TR-FRET signal is plotted and IC50 and Ki values are calculated in the same manner as the fluorescence polarization anisotropy based competition assays.
observedProperty: Ki (nM)

>>> reportedresult("Cc1cc(OCCCc2c3n(c4c(-c5c(C)nn(C)c5C)c(Cl)ccc24)[C@H](C)CN(c2cn(C)c4ccc(-c5ncn(-c6ncccn6)n5)cc24)C3=O)cc(C)c1Cl")
0.3
>>> reportedresult("Cc1cccc(Cn2cnc(-c3ccc4c(c3)c(N3C[C@@H](C)n5c(c(CCCOc6cc(C)c(Cl)c(C)c6)c6ccc(Cl)c(-c7c(C)nn(C)c7C)c65)C3=O)cn4CC(=O)N(C)C)n2)n1")
4.2
>>> reportedresult("Cc1cc(OCCCc2c3n(c4c(-c5c(C)nn(C)c5C)c(Cl)ccc24)[C@H](C)CN(c2cn(C)c4ccc(-c5ncn(-c6ccccn6)n5)cc24)C3=O)cc(C)c1Cl")
0.32

###

Tested on: H929 human cancer cell lines
testSummary: Cellular viability / proliferation (Cell TiterGlo, 72 h)
Type: cell-based
protocolConditions: Homo sapiens, NCI-H929, 72 h, read-out: GI50 on cellular proliferation of H929 human cancer cell lines, H929 cells, 72 h, Cell TiterGlo, 10% FBS
observedProperty: GI50

>>> reportedresult("Cc1cc(OCCCc2c3n(c4c(-c5c(C)nn(C)c5C)c(Cl)ccc24)[C@H](C)CN(c2cccc4cc5n(c24)CCNC5=O)C3=O)cc(C)c1Cl [Example 434]")
"0.89 µM"
>>> reportedresult("Cc1cc(OCCCc2c3n(c4c(-c5c(C)nn(C)c5C)c(Cl)ccc24)[C@H](C)CN(c2cc(CCN4CCN(C)CC4)cc4cc(C(=O)O)n(C)c24)C3=O)cc(C)c1Cl [Example 725]")
"< 0.2 µM"
>>> reportedresult("Cc1cc(OCCCc2c3n(c4c(-c5c(C)nn(C)c5C)c(Cl)ccc24)[C@H](C)[C@@H](C)NC3=O)cc(C)c1Cl [Example 140]")
"7.6 µM"
>>> reportedresult("Cc1cc(OCCCc2c3n(c4c(-c5c(C)nn(C)c5C)c(Cl)ccc24)[C@H](C)CN(c2cn(C)c4ccccc24)C3=O)cc(C)c1Cl [Example 288]")
"8.4 µM"
>>> reportedresult("CCn1cc(C(=O)O)c2cccc(N3C[C@@H](C)n4c(c(CCCOc5cc(C)c(Cl)c(C)c5)c5ccc(Cl)c(-c6c(C)nn(C)c6C)c54)C3=O)c21 [Example 103]")
"0.48 µM"
>>> reportedresult("Cc1cc(OCCCc2c3n(c4c(-c5c(C)nn(C)c5C)c(Cl)ccc24)[C@H](C)CN(c2cc(C(=O)O)nc4ccccc24)C3=O)cc(C)c1Cl [Example 669]")
"7.6 µM"
